# procedure_text: solvent given as SMILES
# condition_context: in CS(C)=O
Exercise: for every item that follows, state its recorded emission maximum.
Give bare numbers, in nm.

Worked examples follow.
>>> df
                                smiles_code  measurement
0  CCOC(=O)CN1C(=O)C2=C(c3ccc(N4CCCCC4)cc3)N(CC(=O)OCC)C(=O)C2=C1c1ccccc1          601
1  CCCCC1(CCCC)c2cc(-c3ccc(C=C4C(=O)c5ccccc5C4=O)cc3)ccc2-c2ccc(-c3ccc(C=C4C(=O)c5ccccc5C4=O)cc3)cc21          596
2  CCCCCCCCCCCCC1(CCCCCCCCCCCC)c2cc(-c3ccc(C=C4C(=O)c5ccccc5C4=O)cc3)ccc2-c2ccc(-c3ccc(C=C4C(=O)c5ccccc5C4=O)cc3)cc21          598

Now consider the entry below.
Challenge: # emission maximum lookup, item `C(=C\c1cc(/C=C/c2ccc(N(c3ccccc3)c3ccccc3)cc2)nc(/C=C/c2ccc(N(c3ccccc3)c3ccccc3)cc2)n1)/c1ccc(N(c2ccccc2)c2ccccc2)cc1`
Response given: 586

----------
# procedure_text: solvent given as SMILES
# condition_context: in CN(C)C=O
So I've got a bunch of molecules here, and I need their emission maximum values.

                                smiles_code        observable  measurement
0  CCN(CC)c1ccc(-c2cc3c(s2)c(C(=O)OC)cc(=O)n3C)cc1  emission maximum       604 nm
1  CSc1nc(-c2ccc(-n3c4ccccc4c4ccccc43)cc2)cc(-c2ccc(-n3c4ccccc4c4ccccc43)cc2)n1  emission maximum       497 nm
2  C=CCOC(=O)C(C#N)=C1C=C(/C=C/c2ccc(N(C)C)cc2)OC(/C=C/c2ccc(N(C)C)cc2)=C1  emission maximum       616 nm
3              CN(C)c1ccc(/C=C2\CCCC2=O)cc1  emission maximum       504 nm
4  CCCCN(c1ccccc1)c1ccc2c(c1)C(CC)(CC)c1cc(/C=C/c3ccc(/C=C(\C#N)C(=O)O)s3)ccc1-2  emission maximum       605 nm

Could I get emission maximum for every one of these entries?
1. CCN(CC)c1ccc(/C=C/c2ccc(-c3ccc(/C=C/c4ccc(N(CC)CC)cc4)s3)s2)cc1
2. CC1(C)Nc2ccccc2-c2[nH]c3ccccc3c(=O)c21
3. O=Cc1ccc(C2=C3C=c4c(oc5ccccc45)=[N+]3[B-](F)(F)n3c2cc2c4ccccc4oc23)cc1
4. CCOC(=O)CN(CC(=O)OCC)c1ccc(-c2cc(-c3ccncc3)nc(-c3ccncc3)c2)cc1

Response given:
1: 586 nm; 2: 506 nm; 3: 615.5 nm; 4: 490 nm

----------
# procedure_text: solvent given as SMILES
# condition_context: in C1COCCO1
observable: emission maximum (nm)
Give bare numbers, in nm.

Look over these answered cases.
                                smiles_code  measurement
0  COC(=O)c1ccc(/C=C2\C=C(c3ccccc3)OC2=O)cc1          495
1  O=C1/C(=C\c2ccc(N(c3ccccc3)c3ccccc3)cc2)S(=O)(=O)c2ccccc21          600

Here is the next item to consider.
Challenge: Dear colleague, I am looking for the recorded emission maximum of the following molecule: `CCCCCN(c1ccccc1)c1ccc2c(c1)C(CC)(CC)c1cc(/C=C/c3ccc(/C=C(\C#N)C(=O)O)s3)ccc1-2`
Response given: 618

These entries and their values trace back to the Deep4Chem optical property database.
